target: Opioid receptors; delta & kappa (Homo sapiens, UniProt P41145+P41143); assay: Ratio of kappa/delta-opioid receptors Binding affinity; format: protein assay
assay.endpoint: Ki
Lab note: record just the number, no unit beside it.

input.smiles | result.number
C/C=C1\C[C@@]23Cc4c([nH]c5ccccc45)[C@@H]1[C@@]21CCN(C)C3Cc2ccc(OC)c(O)c21 | 2.9
COc1ccc2c(c1O)[C@]13CCN(C)C(C2)[C@]12CCC(=O)[C@H]3/C(=C(\C)c1ccccc1)C2 | 0.02

// sample COc1ccc2c(c1O)[C@]13CCN(C)C(C2)[C@@]12CC(=C(C)C)[C@@H]3c1[nH]c3ccccc3c1C2 , its Ki was 0.3

// sample COc1ccc2c(c1O)[C@]13CCN(C)C(C2)[C@]12CCC(=O)[C@H]3/C(=C/c1ccccc1)C2 , its Ki was 0.04

// sample COc1ccc2c(c1O)[C@]13CCN(C)C(C2)[C@@]12C/C(=C(/C)c1ccccc1)[C@@H]3c1[nH]c3ccccc3c1C2 , its Ki was 0.03

// sample CC(C)=CC[C@@]12Cc3c([nH]c4ccccc34)[C@]3(C)Oc4c(O)ccc5c4[C@]13CCN(C)C2C5 , its Ki was 8.6

// sample COc1ccc2c(c1O)[C@]13CCN(C)C(C2)[C@@]12C/C(=C\c1ccccc1)[C@@H]3c1[nH]c3ccccc3c1C2 , its Ki was 2.2

// sample CN1CC[C@]23c4c5ccc(O)c4O[C@@]2(C)c2[nH]c4ccccc4c2C[C@@]3(C/C=C/c2ccccc2)C1C5 , its Ki was 7.5

====

biological target: Kappa-type opioid receptor (Homo sapiens, UniProt P41145); assay: Binding affinity in recombinant human Opioid receptor kappa 1 transfected into chinese hamster ovary cells by displacing [3H]U-69593 radioligand
Sequence (P41145 whole entry): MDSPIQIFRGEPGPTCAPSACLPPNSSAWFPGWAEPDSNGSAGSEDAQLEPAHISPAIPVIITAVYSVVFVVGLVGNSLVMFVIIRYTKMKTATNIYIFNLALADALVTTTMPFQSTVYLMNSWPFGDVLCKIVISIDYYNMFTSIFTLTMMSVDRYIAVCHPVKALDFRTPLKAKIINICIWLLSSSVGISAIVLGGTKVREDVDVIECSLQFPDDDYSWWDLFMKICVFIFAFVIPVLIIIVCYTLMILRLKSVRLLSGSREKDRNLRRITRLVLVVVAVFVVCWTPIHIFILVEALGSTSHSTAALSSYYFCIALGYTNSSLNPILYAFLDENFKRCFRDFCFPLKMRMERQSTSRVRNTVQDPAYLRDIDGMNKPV
The label 1 (yes) is reserved for Ki strictly under 0.6 nM; 0 (no) covers values equal to or above it.

Example entries begin here.
input.smiles | cat
COc1ccc2c(c1O)[C@]13CCN(C)C(C2)[C@@]12C/C(=C\c1ccccc1)[C@@H]3c1[nH]c3ccccc3c1C2 | 0 (no)
CC(C)=CC[C@@]12Cc3c([nH]c4ccccc34)[C@]3(C)Oc4c(O)ccc5c4[C@]13CCN(C)C2C5 | 0 (no)
COc1ccc2c(c1O)[C@]13CCN(C)C(C2)[C@@]12CC(=C(C)C)[C@@H]3c1[nH]c3ccccc3c1C2 | 0 (no)

Please indicate whether the reported Ki of COc1ccc2c(c1O)[C@]13CCN(C)C(C2)[C@]12CCC(=O)[C@H]3/C(=C(\C)c1ccccc1)C2 is strictly below 0.6 nM. 1 (yes)

Please indicate whether the reported Ki of COc1ccc2c(c1O)[C@]13CCN(C)C(C2)[C@]12CCC(=O)[C@H]3/C(=C/c1ccccc1)C2 is strictly below 0.6 nM. 1 (yes)

Please indicate whether the reported Ki of CN1CC[C@]23c4c5ccc(O)c4O[C@@]2(C)c2[nH]c4ccccc4c2C[C@@]3(C/C=C/c2ccccc2)C1C5 is strictly below 0.6 nM. 0 (no)

Please indicate whether the reported Ki of C/C=C1\C[C@@]23Cc4c([nH]c5ccccc45)[C@@H]1[C@@]21CCN(C)C3Cc2ccc(OC)c(O)c21 is strictly below 0.6 nM. 0 (no)

====

target: Mu-type opioid receptor (Homo sapiens); experiment: Effective concentration agonistic activity towards Opioid receptor mu 1
Sequence (P35372 whole entry): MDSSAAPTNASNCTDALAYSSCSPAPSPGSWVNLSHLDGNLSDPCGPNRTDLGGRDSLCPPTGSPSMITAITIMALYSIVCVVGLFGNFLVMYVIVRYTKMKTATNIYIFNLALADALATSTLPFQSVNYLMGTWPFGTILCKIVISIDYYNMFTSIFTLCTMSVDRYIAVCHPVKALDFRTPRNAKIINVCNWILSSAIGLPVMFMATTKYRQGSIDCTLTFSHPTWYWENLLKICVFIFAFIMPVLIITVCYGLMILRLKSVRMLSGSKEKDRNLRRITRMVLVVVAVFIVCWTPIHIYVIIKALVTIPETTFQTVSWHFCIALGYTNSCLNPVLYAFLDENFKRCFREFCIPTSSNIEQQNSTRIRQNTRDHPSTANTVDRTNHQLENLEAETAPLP
Catalogue of molecules with associated pEC50
pEC50 is defined as minus the log10 of a concentration measured in mol/L.

Worked examples follow.
input.smiles | pEC50
CN1CC[C@]23c4c5ccc(O)c4O[C@@]2(C)c2[nH]c4ccccc4c2C[C@@]3(C/C=C/c2ccccc2)C1C5 | 6.09
COc1ccc2c(c1O)[C@]13CCN(C)C(C2)[C@@]12C/C(=C\c1ccccc1)[C@@H]3c1[nH]c3ccccc3c1C2 | 7.35
COc1ccc2c(c1O)[C@]13CCN(C)C(C2)[C@@]12CC(=C(C)C)[C@@H]3c1[nH]c3ccccc3c1C2 | 5.99
COc1ccc2c(c1O)[C@]13CCN(C)C(C2)[C@]12CCC(=O)[C@H]3/C(=C/c1ccccc1)C2 | 8.17
COc1ccc2c(c1O)[C@]13CCN(C)C(C2)[C@]12CCC(=O)[C@H]3/C(=C(\C)c1ccccc1)C2 | 7.82
CC(C)=CC[C@@]12Cc3c([nH]c4ccccc34)[C@]3(C)Oc4c(O)ccc5c4[C@]13CCN(C)C2C5 | 5.92
COc1ccc2c(c1O)[C@]13CCN(C)C(C2)[C@@]12C/C(=C(/C)c1ccccc1)[C@@H]3c1[nH]c3ccccc3c1C2 | 6.86

// sample C/C=C1\C[C@@]23Cc4c([nH]c5ccccc45)[C@@H]1[C@@]21CCN(C)C3Cc2ccc(OC)c(O)c21 , its pEC50 was 5.78

====

molecular target: Kappa-type opioid receptor (Homo sapiens); test: % stimulation of [35S]GTP-gamma-S, binding of compound in recombinant human Opioid receptor kappa 1 transfected into CHO cells; assay type: functional, cell-based
assay.endpoint: Stimulation (%)
Write it as a number; the unit % goes unstated.

Worked examples follow.
input.smiles | measure.unit | result.number
C/C=C1\C[C@@]23Cc4c([nH]c5ccccc45)[C@@H]1[C@@]21CCN(C)C3Cc2ccc(OC)c(O)c21 | % | 36
COc1ccc2c(c1O)[C@]13CCN(C)C(C2)[C@@]12C/C(=C\c1ccccc1)[C@@H]3c1[nH]c3ccccc3c1C2 | % | 83
COc1ccc2c(c1O)[C@]13CCN(C)C(C2)[C@]12CCC(=O)[C@H]3/C(=C(\C)c1ccccc1)C2 | % | 116

// sample CN1CC[C@]23c4c5ccc(O)c4O[C@@]2(C)c2[nH]c4ccccc4c2C[C@@]3(C/C=C/c2ccccc2)C1C5 , its Stimulation was 60

====

Quick record of pKi values for Mu-type opioid receptor (Homo sapiens, UniProt P35372).
pKi is defined as minus the log10 of a concentration measured in mol/L.

input.smiles | pKi
COc1ccc2c(c1O)[C@]13CCN(C)C(C2)[C@@]12C/C(=C(/C)c1ccccc1)[C@@H]3c1[nH]c3ccccc3c1C2 | 7.87
CC(C)=CC[C@@]12Cc3c([nH]c4ccccc34)[C@]3(C)Oc4c(O)ccc5c4[C@]13CCN(C)C2C5 | 6.60

Next, consider the following molecule.
// sample COc1ccc2c(c1O)[C@]13CCN(C)C(C2)[C@]12CCC(=O)[C@H]3/C(=C(\C)c1ccccc1)C2 , its pKi was 8.34
